Test system: Wnt/β-catenin signaling (β-catenin activity) in HEK293 cell line
experimentSummary: Cell-based Wnt agonist screening, TCF luciferase reporter, HEK293 (TCF-FL)
Parameters: species or system human
testSettings: Homo sapiens, HEK293, 24 h, % of LiCl (20 mM), 24 h, Conc. 120 μM, read-out: Max. Activity (%)
readoutKind: Emax at 120 µM

- compound: "O=C(NCCCCn1ccnc1)c1cc(-c2ccco2)on1 [Derivative (34)]"
  reported: "44%"
- compound: "Cc1nccn1CCNC(=O)c1cc(-c2ccco2)on1 [Derivative (35)]"
  reported: "35%"
- compound: "Cc1ccc(-c2cc(C(=O)NCCCn3ccnc3)no2)cc1 [Derivative (80)]"
  reported: "58%"
- compound: "COc1ccc(-c2cc(C(=O)NCCCn3ccnc3)no2)cc1 [Derivative (101)]"
  reported: "205%"
- compound: "COc1ccccc1-c1cc(C(=O)NCCCn2ccnc2)no1 [Derivative (99)]"
  reported: "37%"
- compound: "O=C(NCCCn1cncn1)c1cc(-c2ccc(Cl)cc2)on1 [Derivative (96)]"
  reported: "80%"
- compound: "O=C(NCCCn1ccnc1)c1cc(-c2ccc(Cl)cc2)on1 [Derivative (98)]"
  reported: "54%"
- compound: "O=C(NCCn1cncn1)c1cc(-c2ccc(F)cc2)on1 [Derivative (88)]"
  reported: "600%"
- compound: "O=C(NCCCn1ccnc1)c1cc(-c2cccc([N+](=O)[O-])c2)on1 [Derivative (113)]"
  reported: "46%"
- compound: "O=C(NCCCn1ccnc1)c1cc(-c2cccc(F)c2)on1 [Derivative (82)]"
  reported: "67%"
- compound: "COc1ccc(-c2cc(C(=O)NCCc3ccncc3)no2)cc1 [Derivative (102)]"
  reported: "73%"

====

Tested on: Wnt/β-catenin signaling (β-catenin activity) in SW480 cell line
experimentSummary: Cell-based Wnt agonist screening, TCF luciferase reporter, SW480 (TCF-FL)
Set-up: species or system human
testSettings: Homo sapiens, % of LiCl (20 mM), 24 h, Con. 120 μM, read-out: Max. Activity (%)
Excerpt: In order to measure the in vitro activity of compounds of the present invention, two human cancer cell lines, HEK293 and SW480, which have intact Wnt signaling and show APC gene mutation in the Wnt signaling pathway, respectively, were used. […]
The entries below come with measured Emax at 120 µM values attached.

- structure: "O=C(NCc1ccncc1)OCc1cc(-c2ccco2)on1"
  Emax at 120 µM [%]: 37
- structure: "O=C(NCCCCn1ccnc1)c1cc(-c2ccco2)on1"
  Emax at 120 µM [%]: 120
- structure: "Nc1cccc(-c2cc(C(=O)NCCCn3ccnc3)no2)c1"
  Emax at 120 µM [%]: 43
- structure: "O=C(NCCCn1ccnc1)c1cc(-c2cccc([N+](=O)[O-])c2)on1"
  Emax at 120 µM [%]: 46
- structure: "COc1ccc(-c2cc(C(=O)NCCCn3ccnc3)no2)cc1"
  Emax at 120 µM [%]: 205
- structure: "O=C(NCCc1ccc(Br)cc1)c1cc(-c2ccco2)on1"
  Emax at 120 µM [%]: 223
- structure: "O=C(NCCCn1ccnc1)c1cc(-c2cccc(F)c2)on1"
  Emax at 120 µM [%]: 67
- structure: "O=C(NCCCn1ccnc1)c1cc(-c2ccc(Br)s2)on1"
  Emax at 120 µM [%]: 93
- structure: "COc1cccc(-c2cc(C(=O)NCCCn3ccnc3)no2)c1"
  Emax at 120 µM [%]: 59
- structure: "O=C(NCCc1ccccn1)c1cc(-c2ccccc2)on1"
  Emax at 120 µM [%]: 789
- structure: "Cc1cn(CCNC(=O)c2cc(-c3ccco3)on2)cn1"
  Emax at 120 µM [%]: 296
- structure: "O=C(NCCNCc1ccccc1)c1cc(-c2ccco2)on1"
  Emax at 120 µM [%]: 84
- structure: "Cc1nccn1CCNC(=O)c1cc(-c2ccco2)on1"
  Emax at 120 µM [%]: 130
- structure: "O=C(NCCn1cncn1)c1cc(-c2ccc(F)cc2)on1"
  Emax at 120 µM [%]: 600
- structure: "O=C(NCCCn1ccnc1)c1cc(N2CCOCC2)on1"
  Emax at 120 µM [%]: 33
- structure: "Cc1ccc(-c2cc(C(=O)NCCCn3ccnc3)no2)cc1"
  Emax at 120 µM [%]: 58
- structure: "O=C(OCc1cc(-c2ccco2)on1)n1ccnc1"
  Emax at 120 µM [%]: 35
- structure: "O=C(NCCCn1cncn1)c1cc(-c2ccc(Cl)cc2)on1"
  Emax at 120 µM [%]: 80
- structure: "COc1ccc(-c2cc(C(=O)NCCc3ccncc3)no2)cc1"
  Emax at 120 µM [%]: 73

Origin of measurements: patent US7915297B2
